Organism: Rattus norvegicus
Test: Open TG-GATES - Regimen: Single
Format: toxicity, organism-based, Sprague-Dawley
Parameters: regimen Single, gender Male, age 6 weeks
Conditions: in vivo, po, 0 mg/kg, 3 h, tissue Blood, route gavage, dose level Control
So I've got a bunch of compounds here, and I need their Mono values.
Give the number; % is assumed, so skip it.

Qu. Identify measured Mono associated with CC(C)(S)[C@@H](N)C(=O)O [PENICILLAMINE]
Ans. 2.8

Qu. Give the reported Mono for this compound. O=C(N[C@H](CO)[C@H](O)c1ccc([N+](=O)[O-])cc1)C(Cl)Cl [CHLORAMPHENICOL]
Ans. 3.8

Qu. Give Mono for the following compound: CC(=O)Oc1cc(C(C)C)c(OCCN(C)C)cc1C [MOXISYLYTE]
Ans. 2.4

Qu. For the compound C[C@]12CCC(=O)C=C1CC[C@@H]1[C@@H]2CC[C@@]2(C)[C@H]1CC[C@]2(C)O [METHYLTESTOSTERONE] , report Mono.
Ans. 3.6

Qu. Return reported Mono. Input compound: O=C(O)c1cccnc1 [NIACIN]
Ans. 2.2

Qu. Recall and state the measured Mono for CC(=N)S [THIOACETAMIDE] .
Ans. 8.2
